Source of measurements: PubChem BioAssay AID248

Recorded T/C by entry
- System: L1210 leukemia ip in BDF1 mice, survival T/C
- assay_remarks: NCI In Vivo Anticancer Drug Screen. Data for tumor model L1210 Leukemia (intraperitoneal) in B6D2F1 (BDF1) mice
- condition_parameters: endpoint: mean survival time; dose: 200.0 mg/kg/injection; schedule: Q04DX002 (ip); vehicle: other; higher = longer survival
Toxic doses and inconclusive results are not listed.
parameter_measured: T/C

>>> measured_value("CCCCCCCCCCCC[N+]1(C)CC[N+](C)(CCCCCCCCCCCC)CC1 (stereo not given)")
"101 % of control"
>>> measured_value("COc1cc(OC)c(/C=C2\\N=C(c3ccccc3)OC2=O)c(OC)c1")
"102 % of control"
>>> measured_value("c1ccc(-c2cc[c]([Sn]([c]3ccccc3)([c]3ccccc3)[c]3ccccc3)cc2)cc1")
"107 % of control"
>>> measured_value("CN(C)OC(=O)Nc1cccc([N+](=O)[O-])c1")
"102 % of control"
>>> measured_value("Clc1nc(Cl)nc(Cl)n1")
"95 % of control"

* * *

- Tested on: L1210 leukemia ip in BDF1 mice, survival T/C
- assay_remarks: NCI In Vivo Anticancer Drug Screen. Data for tumor model L1210 Leukemia (intraperitoneal) in B6D2F1 (BDF1) mice
- condition_parameters: endpoint: mean survival time; dose: 400.0 mg/kg/injection; schedule: Q01DX009 (ip); vehicle: saline with Tween-80; higher = longer survival
- Description: The antitumor activity of compounds was measured in mice bearing transplantable tumors. Survival or tumor size were measured and the results are expressed as the measurement made in the treated group (T) divided by the measurement made in the vehicle treated control group (C). The tumor model used in this assay is L1210 Leukemia (intraperitoneal) in B6D2F1 (BDF1) mice
Toxic doses and inconclusive results are not listed.
Recorded T/C by entry
parameter_measured: T/C

>>> measured_value("NC(c1ccccc1)C(N)c1ccccc1 (centres undefined)")
"98 % of control"
>>> measured_value("O=C(O)/C=C/C(=O)NCc1ccco1")
"101 % of control"
>>> measured_value("CCOc1nc(=O)n(CC(=O)c2ccc(Cl)s2)cc1F")
"86 % of control"
>>> measured_value("CCOC(=O)CCCN(c1[nH]c(C)c(C)c1C#N)S(=O)(=O)c1ccc(C)cc1")
"100 % of control"
>>> measured_value("COc1c(C)c(C)c(OC)c(Br)c1C")
"106 % of control"
>>> measured_value("COc1ccc(NC(=S)N(C)C)cc1")
"98 % of control"
>>> measured_value("Clc1cccc(-c2nc3ccccc3c3ccccc23)c1")
"103 % of control"
>>> measured_value("O=C(OCCO)c1ccccc1")
"95 % of control"
>>> measured_value("O=C1NC(=O)C(c2ccccc2)(C2CCC2)N1 (centres undefined)")
"95 % of control"
>>> measured_value("CC1(C)C=C2OC(=O)CCC2(C)CC1 (centres undefined)")
"107 % of control"
>>> measured_value("O=C(NO)N/N=C/c1ccccc1")
"110 % of control"
>>> measured_value("Cc1cc(Br)c2ccccc2c1NS(=O)(=O)c1ccccc1")
"92 % of control"
>>> measured_value("O=C(c1ccccc1Br)C(Br)C(Br)c1ccccc1 (centres undefined)")
"91 % of control"
>>> measured_value("CCOC(=O)c1c[nH]c2c(OC)cccc2c1=O")
"97 % of control"

* * *

Recorded T/C by entry
- Tested on: L1210 leukemia ip in BDF1 mice, survival T/C
- assay_remarks: NCI In Vivo Anticancer Drug Screen. Data for tumor model L1210 Leukemia (intraperitoneal) in B6D2F1 (BDF1) mice
- condition_parameters: endpoint: mean survival time; dose: 200.0 mg/kg/injection; schedule: Q01DX001 (ip); vehicle: Klucel (hydroxypropylcellulose) (HPC); higher = longer survival
Toxic doses and inconclusive results are not listed.
parameter_measured: T/C

>>> measured_value("c1ccc(CNc2ncnc3c2ncn3Cc2ccccc2)cc1")
"104 % of control"
>>> measured_value("CCOC(=O)c1cc2nc(C(C)C)n(Cc3ccccc3)c2cc(C(=O)OCC)c1=O")
"91 % of control"
>>> measured_value("Cc1cnc2c(N)nc(-c3ccccc3)nc2n1")
"103 % of control"
>>> measured_value("COCC(O)C(OC)C(OC)C(C=O)NC(=O)NCCCl (stereo not drawn)")
"103 % of control"
>>> measured_value("CC(C)CCCC(C)C1CCC2C3CCC4(C)CCCCC4(C)C3CCC12C (stereo not drawn)")
"94 % of control"
>>> measured_value("CC(=O)Nc1cc(Cl)c2[nH]cnc2n1")
"95 % of control"
>>> measured_value("CCCCCCCCCCCCCCCCN(C(=S)NC(=O)c1ccccc1)c1ccccc1")
"86 % of control"
>>> measured_value("C=CC/C=C/C")
"109 % of control"
>>> measured_value("CCCCCn1cnc2c(=O)[nH]c(N)nc21")
"106 % of control"
>>> measured_value("Nc1cccc(/C=C/c2ccc([N+](=O)[O-])cc2)c1")
"87 % of control"
>>> measured_value("CNC(=O)Nc1ccc(Cl)cc1")
"105 % of control"
>>> measured_value("COc1ccc2c(ccc3ccc4ccccc4c32)c1")
"102 % of control"
>>> measured_value("CN(c1ccccc1)c1cc(=O)[nH]c(=O)[nH]1")
"104 % of control"

* * *

- Test system: L1210 leukemia ip in BDF1 mice, survival T/C
- assay_remarks: NCI In Vivo Anticancer Drug Screen. Data for tumor model L1210 Leukemia (intraperitoneal) in B6D2F1 (BDF1) mice
- condition_parameters: endpoint: mean survival time; dose: 200.0 mg/kg/injection; schedule: Q04DX003 (ip); vehicle: Klucel (hydroxypropylcellulose) (HPC); higher = longer survival
Inconclusive results and toxic doses are left out.
parameter_measured: T/C

>>> measured_value("CP(=S)(c1ccccc1)P(C)(=S)c1ccccc1 (stereo unspecified)")
"101 % of control"
>>> measured_value("c1ccc(C(=C(c2ccccc2)c2ccccc2)c2ccccc2)cc1")
"97 % of control"
>>> measured_value("Nc1ccc(C(=O)Oc2ccccc2)c(O)c1")
"93 % of control"
>>> measured_value("CCCCN1C(=O)CC(C23C(=O)N(CCCC)C(=O)C2CCc2ncccc23)C1=O (stereo unspecified)")
"99 % of control"
>>> measured_value("CCCCNC(=O)Nc1ccccc1OCC")
"104 % of control"
>>> measured_value("O=C(NC(=O)C(Cl)Cl)Nc1cccc2c1-c1ccccc1C2")
"92 % of control"

* * *

- Tested on: L1210 leukemia ip in BDF1 mice, survival T/C
- assay_remarks: NCI In Vivo Anticancer Drug Screen. Data for tumor model L1210 Leukemia (intraperitoneal) in B6D2F1 (BDF1) mice
- condition_parameters: endpoint: mean survival time; dose: 100.0 mg/kg/injection; schedule: Q04DX003 (ip); vehicle: saline with Tween-80; higher = longer survival
Inconclusive results and toxic doses are left out.
Recorded T/C by entry
parameter_measured: T/C

>>> measured_value("O=C(CCN1CC=C(c2ccccc2)CC1)NCc1ccccc1")
"98 % of control"
>>> measured_value("CC(=O)C(C)=O")
"95 % of control"
>>> measured_value("O=C(/C=C/c1ccccc1)NC(=S)Nc1ccccc1F")
"94 % of control"
>>> measured_value("CCCN([Si](C)(C)C)[Si](C)(C)C")
"99 % of control"
>>> measured_value("COc1cc2c(cc1OC)-c1nc(C)sc1CC2")
"98 % of control"
>>> measured_value("CCOC(=O)C(C(=O)c1ccccc1)c1cc(NS(=O)(=O)c2ccccc2)ccc1O (stereo unspecified)")
"91 % of control"
>>> measured_value("CCCCSc1cc(NS(=O)(=O)c2ccccc2)ccc1NS(=O)(=O)c1ccccc1")
"97 % of control"
>>> measured_value("Cc1ccc2c(c1)CCCN2C=O")
"102 % of control"
>>> measured_value("COc1cc2cc3c4cc(OC)c(OC)cc4cc[n+]3c(/C=C/c3cc(OC)c(OC)c(OC)c3)c2cc1OC")
"94 % of control"
>>> measured_value("CC(=O)OCC1OC(Oc2c(Br)cc(Br)cc2Br)C(OC(C)=O)C(OC(C)=O)C1OC(C)=O (stereo unspecified)")
"96 % of control"
>>> measured_value("COc1cccc(/C(C)=N\\NC(=O)c2ccccc2)c1")
"92 % of control"

* * *

Recorded T/C by entry
- Test system: L1210 leukemia ip in BDF1 mice, survival T/C
- assay_remarks: NCI In Vivo Anticancer Drug Screen. Data for tumor model L1210 Leukemia (intraperitoneal) in B6D2F1 (BDF1) mice
- condition_parameters: endpoint: mean survival time; dose: 12.5 mg/kg/injection; schedule: Q04DX003 (ip); vehicle: Klucel (hydroxypropylcellulose) (HPC); higher = longer survival
Toxic doses and inconclusive results are not listed.
parameter_measured: T/C

>>> measured_value("CCN1CCN(Cc2ccccc2)C(CCl)C1 (stereo unspecified)")
"100 % of control"
>>> measured_value("O=C1NC(C2CC3C=CC2C3)Nc2ccccc21 (stereo unspecified)")
"111 % of control"
>>> measured_value("COC(=O)CC(Cc1cc(OC)ccc1OC)(C(=O)OC)C(=O)OC")
"102 % of control"
>>> measured_value("CC(C)C(CCN1CCCCC1)(CNC1=NCCN1)c1cccc2ccccc12 (stereo unspecified)")
"92 % of control"
>>> measured_value("O=C1NC(=O)C2(CCCCC2)N1")
"94 % of control"
>>> measured_value("CSc1ncc(C(N)=O)c(N=C(C)C)n1")
"96 % of control"
